Data provenance is patent US20160311917A1.

Biological target: T1, recombinant human biotinylated mesothelin extracellular domain with C-terminal Avi-Tag (human, site selectively biotinylated in vitro with BirA enzyme at the C-terminal Avi-Tag)
T1 construct: Produced in HEK293F cells; as printed it includes a His tag and the Avi-Tag; Immobilised on a streptavidin sensor chip for SPR; also called human MSLN ECD; human mesothelin ECD
T1 chain: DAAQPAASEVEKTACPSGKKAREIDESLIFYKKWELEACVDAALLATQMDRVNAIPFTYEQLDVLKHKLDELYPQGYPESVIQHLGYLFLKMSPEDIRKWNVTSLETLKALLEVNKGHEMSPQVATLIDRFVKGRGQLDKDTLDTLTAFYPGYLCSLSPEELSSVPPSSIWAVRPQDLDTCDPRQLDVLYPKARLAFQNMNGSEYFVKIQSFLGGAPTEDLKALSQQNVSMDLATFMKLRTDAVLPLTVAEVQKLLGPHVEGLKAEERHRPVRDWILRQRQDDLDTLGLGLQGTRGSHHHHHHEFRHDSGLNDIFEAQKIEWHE
Experiment: SPR, Biacore T200; biotinylated mesothelin ECD on streptavidin chip, scFv injected; 1:1 binding model
Form field: Kd (one value per entry).
Numbers only; they are read as nM.

M17 scFv (human anti-mesothelin scFv, soluble, His-tagged) (scFv, also called NS89-94MD) scFv: EVQLVESGGGLVQPGRSLRLSCAASGFTFDDYAMHWVRQAPGKGLEWVSGISWNSGSTGYADSVKGRFTISRDNAKNSLYLQMNSLRAEDTALYYCAKDSSSWYGGGSAFDIWGQGTMVTVSSGGGGSGGGGSGGGGSSSELTQDPAVSVALGQTVRITCQGDSLRSYYASWYQQKPGQAPVLVIYGKNNRPSGIPDRFSGSSSGNTASLTITGAQAEDEADYYCNSRGSSGNHYVFGTGTKVTVLGSHHHHHHHH	27.8

Query: Which value of Kd has been reported for M5 scFv (human anti-mesothelin scFv, soluble, His-tagged) (scFv, also called scFv M5; XP31-20LC) scFv: QVQLVQSGAEVEKPGASVKVSCKASGYTFTDYYMHWVRQAPGQGLEWMGWINPNSGGTNYAQKFQGRVTMTRDTSISTAYMELSRLRSDDTAVYYCASGWDFDYWGQGTLVTVSSGGGGSGGGGSGGGGSGGGGSDIVMTQSPSSLSASVGDRVTITCRASQSIRYYLSWYQQKPGKAPKLLIYTASILQNGVPSRFSGSGSGTDFTLTISSLQPEDFATYYCLQTYTTPDFGPGTKVEIKGSHHHHHHHH in the records?
Result: 26.9

Query: Which value of Kd has been reported for M16 scFv (human anti-mesothelin scFv, soluble, His-tagged) (scFv, also called XS87-99RD) scFv: EVQLVESGGGLVQPGRSLRLSCAASGFTFDDYAMHWVRQAPGKGLEWVSGISWNSGSTGYADSVKGRFTISRDNAKNSLYLQMNSLRAEDTALYYCAKDSSSWYGGGSAFDIWGQGTMVTVSSGGGGSGGGGSGGGGSSSELTQEPAVSVALGQTVRITCQGDSLRSYYASWYQQKPGQAPVLVIFGRSRRPSGIPDRFSGSSSGNTASLIITGAQAEDEADYYCNSRDNTANHYVFGTGTKLTVLGSHHHHHHHH in the records?
Result: 22.7

Query: Which value of Kd has been reported for M14 scFv (human anti-mesothelin scFv, soluble, His-tagged) (scFv, also called BS83-95ID) scFv: QVQLVQSGAEVRAPGASVKISCKASGFTFRGYYIHWVRQAPGQGLEWMGIINPSGGSRAYAQKFQGRVTMTRDTSTSTVYMELSSLRSDDTAMYYCARTASCGGDCYYLDYWGQGTLVTVSSGGGGSGGGGSGGGGSGGGGSDIQMTQSPPTLSASVGDRVTITCRASENVNIWLAWYQQKPGKAPKLLIYKSSSLASGVPSRFSGSGSGAEFTLTISSLQPDDFATYYCQQYQSYPLTFGGGTKVDIKGSHHHHHHHH in the records?
Result: 0.9
